Recorded IC50 for the following compounds
# system: UniProt P35346
# Sequence (P35346 whole entry): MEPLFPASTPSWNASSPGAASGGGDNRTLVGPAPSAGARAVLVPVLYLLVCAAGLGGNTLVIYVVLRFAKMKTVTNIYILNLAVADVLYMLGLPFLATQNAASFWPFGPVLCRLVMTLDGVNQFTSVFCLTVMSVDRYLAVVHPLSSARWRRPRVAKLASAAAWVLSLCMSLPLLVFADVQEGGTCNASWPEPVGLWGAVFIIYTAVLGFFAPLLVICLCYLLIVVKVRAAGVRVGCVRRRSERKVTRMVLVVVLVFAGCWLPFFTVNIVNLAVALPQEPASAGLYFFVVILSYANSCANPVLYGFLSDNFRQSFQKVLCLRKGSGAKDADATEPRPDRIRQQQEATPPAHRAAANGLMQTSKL
Positions of bridges follow the written chain, without caps; N, C: chain ends. Non-standard residues stand in square brackets, D forms with d. Residues, ends and D or L forms follow the SMILES beside them. NMePhe(4-CH2NHiPr) = CN[C@@H](Cc1ccc(CNC(C)C)cc1)C(=O)O; d2Nal = N[C@H](Cc1ccc2ccccc2c1)C(=O)O

Answered cases to consult:
[
  {
    "compound": "CC(C)NCc1ccc(C[C@@H]2NC(=O)[C@H](N(C)C(=O)c3ccc4ccccc4c3)NC(=O)[C@H](Cc3ccccc3)NC(=O)[C@H](Cc3ccccc3)NC(=O)[C@H](CCCCN)NC(=O)[C@@H](N)CSSC[C@@H](C(=O)O)NC(=O)[C@H](CO)NC(=O)[C@H]([C@@H](C)O)NC(=O)[C@H](Cc3ccc(O)cc3)NC(=O)[C@H]([C@@H](C)O)NC2=O)cc1",
    "system": "UniProt P35346",
    "IC50": "> 1000 nM"
  },
  {
    "compound": "CN[C@H]1CSSC[C@@H](C(=O)O)NC(=O)[C@H](CO)NC(=O)[C@H]([C@@H](C)O)NC(=O)[C@H](Cc2ccccc2)NC(=O)[C@H]([C@@H](C)O)NC(=O)[C@H](Cc2ccc(CNC(C)C)cc2)NC(=O)[C@@H](Cc2ccc3ccccc3c2)NC(=O)[C@H](Cc2ccccc2)NC(=O)[C@H](Cc2ccccc2)NC(=O)[C@H](CCCCN)NC1=O",
    "system": "UniProt P35346",
    "IC50": "> 1000 nM"
  }
]

Consider the record given below.
Measured IC50 of CC(C)NCc1ccc(C[C@H]2C(=O)N[C@@H]([C@@H](C)O)C(=O)N[C@@H](Cc3ccc(O)cc3)C(=O)N[C@@H]([C@@H](C)O)C(=O)N[C@@H](CO)C(=O)N[C@H](C(=O)O)CSSC[C@H](N)C(=O)N[C@@H](CCCCN)C(=O)N[C@@H](Cc3ccccc3)C(=O)N[C@@H](Cc3ccccc3)C(=O)N[C@H](Cc3ccc4ccccc4c3)C(=O)N2C)cc1 (H-CKFF[d2Nal][NMePhe(4-CH2NHiPr)]TYTSC-OH; disulfide 1-11) : > 1000 nM

* * *

Recorded pIC50 for the following compounds
# system: Somatostatin receptor type 1 (Homo sapiens, UniProt P30872)
# Sequence (P30872 whole entry): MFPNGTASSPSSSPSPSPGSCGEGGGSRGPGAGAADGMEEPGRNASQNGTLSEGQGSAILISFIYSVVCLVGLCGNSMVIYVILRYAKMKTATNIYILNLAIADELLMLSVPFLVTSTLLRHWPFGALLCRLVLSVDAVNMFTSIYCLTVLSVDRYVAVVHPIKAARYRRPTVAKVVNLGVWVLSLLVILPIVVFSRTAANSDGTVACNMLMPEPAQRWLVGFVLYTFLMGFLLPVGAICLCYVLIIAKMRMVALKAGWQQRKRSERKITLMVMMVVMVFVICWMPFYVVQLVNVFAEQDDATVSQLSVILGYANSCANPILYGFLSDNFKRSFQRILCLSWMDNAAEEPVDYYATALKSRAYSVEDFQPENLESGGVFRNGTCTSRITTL
# test_description: Inhibition of [Leu8,D-Trp22,125I-Tyr25]SRIF-28 binding to human somatostatin receptor type 1
Positions of bridges follow the written chain, without caps; N, C: chain ends. Non-standard residues stand in square brackets, D forms with d. Residues, ends and D or L forms follow the SMILES beside them. NMePhe(4-CH2NHiPr) = CN[C@@H](Cc1ccc(CNC(C)C)cc1)C(=O)O; Phe(4-CH2NHiPr) = CC(C)NCc1ccc(C[C@H](N)C(=O)O)cc1; d2Nal = N[C@H](Cc1ccc2ccccc2c1)C(=O)O
// scale note: pIC50 = -log10(conc_M); give the bare number

Measured pIC50 of C[C@H](N)C(=O)NCC(=O)N[C@H]1CSSC[C@@H](C(=O)O)NC(=O)[C@H](CO)NC(=O)[C@H]([C@@H](C)O)NC(=O)[C@H](Cc2ccccc2)NC(=O)[C@H]([C@@H](C)O)NC(=O)[C@H](CCCCN)NC(=O)[C@@H](Cc2c[nH]c3ccccc23)NC(=O)[C@H](Cc2ccccc2)NC(=O)[C@H](Cc2ccccc2)NC(=O)[C@H](CCCCN)NC1=O (H-AGCKFF[dW]KTFTSC-OH; disulfide 3-13) : 9.01

Measured pIC50 of CC(C)NCc1ccc(C[C@H]2C(=O)N[C@@H]([C@@H](C)O)C(=O)N[C@@H](Cc3ccccc3)C(=O)N[C@@H]([C@@H](C)O)C(=O)N[C@@H](CO)C(=O)N[C@H](C(=O)O)CSSC[C@H](N)C(=O)N[C@@H](CCCCN)C(=O)N[C@@H](Cc3ccccc3)C(=O)N[C@@H](Cc3ccccc3)C(=O)N[C@H](Cc3ccc4ccccc4c3)C(=O)N2C)cc1 (H-CKFF[d2Nal][NMePhe(4-CH2NHiPr)]TFTSC-OH; disulfide 1-11) : 7.16

Measured pIC50 of CC(C)NCc1ccc(C[C@@H]2NC(=O)[C@@H](Cc3c[nH]c4ccccc34)NC(=O)[C@H](Cc3ccccc3)NC(=O)[C@H](Cc3ccccc3)NC(=O)[C@H](CCCCN)NC(=O)[C@@H](N)CSSC[C@@H](C(=O)O)NC(=O)[C@H](CO)NC(=O)[C@H]([C@@H](C)O)NC(=O)[C@H](Cc3ccccc3)NC(=O)[C@H]([C@@H](C)O)NC2=O)cc1 (H-CKFF[dW][Phe(4-CH2NHiPr)]TFTSC-OH; disulfide 1-11) : 7.48
